Listing of recorded EC50 by entry.
# assayed.target: human ADRA2B receptor (Homo sapiens, UniProt P18089)
# Construct: expressed in transfected cells
# Sequence (P18089 1-450): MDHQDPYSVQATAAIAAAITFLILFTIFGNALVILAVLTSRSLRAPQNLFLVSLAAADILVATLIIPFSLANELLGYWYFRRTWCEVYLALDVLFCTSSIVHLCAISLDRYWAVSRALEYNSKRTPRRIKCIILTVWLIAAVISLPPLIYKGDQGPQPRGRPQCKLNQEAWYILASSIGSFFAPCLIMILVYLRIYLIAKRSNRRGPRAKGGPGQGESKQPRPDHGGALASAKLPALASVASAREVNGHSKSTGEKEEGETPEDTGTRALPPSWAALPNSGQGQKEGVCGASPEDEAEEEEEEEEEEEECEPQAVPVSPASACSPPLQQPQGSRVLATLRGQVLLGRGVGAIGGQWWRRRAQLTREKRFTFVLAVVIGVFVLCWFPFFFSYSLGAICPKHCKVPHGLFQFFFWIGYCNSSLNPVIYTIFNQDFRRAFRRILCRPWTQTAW
# protocol: GTPγS agonist assay, ADRA2B receptor
# Assay type: biochemical
# measurement.setup: read-out: GTPase - Human Alpha2B EC50
value.kind: EC50

[[record]]
compound = "COc1cccc(C[C@H](c2c[nH]cn2)c2cccc3c2CCO3)n1 [Compound 18]"
reading = "> 500 nM"

[[record]]
compound = "c1ccc(C[C@H](c2cnc[nH]2)c2cccc3c2COC3)nc1 [Compound 45]"
reading = "> 500 nM"

[[record]]
compound = "COc1cccc(C[C@H](c2cccc(Cl)c2)c2cnc[nH]2)n1 [Compound 22]"
reading = "> 500 nM"

[[record]]
compound = "FC(F)(F)Oc1ccccc1[C@H](Cc1ccccn1)c1cnc[nH]1 [Compound 29]"
reading = "> 500 nM"

[[record]]
compound = "COc1cccc(C(Cc2ccnc(C)n2)c2c[nH]cn2)c1C (stereo not drawn) [Compound 149]"
reading = "10 to 50 nM"

[[record]]
compound = "Cc1cccc(C(Cc2ncc(F)cn2)c2c[nH]cn2)c1C (stereo not drawn) [Compound 112]"
reading = "50 to 500 nM"

[[record]]
compound = "COc1cccc(C[C@@H](c2cnc[nH]2)c2cccc3c2COC3)n1 [Compound 12]"
reading = "> 500 nM"

[[record]]
compound = "COc1nccc(CC(c2ccc(C(F)F)cc2)c2c[nH]cn2)n1 (stereo not drawn) [Compound 188]"
reading = "> 500 nM"

[[record]]
compound = "COc1ncc(CC(c2c[nH]cn2)c2cccc3c2OCC3)c(OC)n1 (stereo not drawn) [Compound 312]"
reading = "10 to 50 nM"

